# target-desc: Integrin alpha-IIb/beta-3 (Homo sapiens, UniProt P05106+P08514)
# Sequence (P05106 27-788 limits assumed): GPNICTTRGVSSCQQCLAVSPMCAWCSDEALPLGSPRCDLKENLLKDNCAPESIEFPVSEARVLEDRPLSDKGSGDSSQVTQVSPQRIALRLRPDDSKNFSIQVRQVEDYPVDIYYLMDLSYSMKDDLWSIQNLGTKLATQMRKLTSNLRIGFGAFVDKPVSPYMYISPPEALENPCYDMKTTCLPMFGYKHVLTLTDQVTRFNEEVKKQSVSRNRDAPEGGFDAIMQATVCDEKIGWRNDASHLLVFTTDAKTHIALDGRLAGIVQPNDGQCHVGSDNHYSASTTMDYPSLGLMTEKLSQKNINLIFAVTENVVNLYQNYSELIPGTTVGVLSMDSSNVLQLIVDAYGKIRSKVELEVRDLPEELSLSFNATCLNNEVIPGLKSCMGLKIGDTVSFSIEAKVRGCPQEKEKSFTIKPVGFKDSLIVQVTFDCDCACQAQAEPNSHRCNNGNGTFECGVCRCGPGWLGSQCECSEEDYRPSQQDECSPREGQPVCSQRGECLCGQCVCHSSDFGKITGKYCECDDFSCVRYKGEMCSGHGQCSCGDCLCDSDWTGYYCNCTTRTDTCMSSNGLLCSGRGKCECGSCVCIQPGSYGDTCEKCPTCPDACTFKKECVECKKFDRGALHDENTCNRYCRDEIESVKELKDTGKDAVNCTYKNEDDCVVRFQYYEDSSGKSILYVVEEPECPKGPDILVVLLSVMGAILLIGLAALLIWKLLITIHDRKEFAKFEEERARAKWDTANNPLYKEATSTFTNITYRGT
# Sequence (P08514 32-887 limits assumed): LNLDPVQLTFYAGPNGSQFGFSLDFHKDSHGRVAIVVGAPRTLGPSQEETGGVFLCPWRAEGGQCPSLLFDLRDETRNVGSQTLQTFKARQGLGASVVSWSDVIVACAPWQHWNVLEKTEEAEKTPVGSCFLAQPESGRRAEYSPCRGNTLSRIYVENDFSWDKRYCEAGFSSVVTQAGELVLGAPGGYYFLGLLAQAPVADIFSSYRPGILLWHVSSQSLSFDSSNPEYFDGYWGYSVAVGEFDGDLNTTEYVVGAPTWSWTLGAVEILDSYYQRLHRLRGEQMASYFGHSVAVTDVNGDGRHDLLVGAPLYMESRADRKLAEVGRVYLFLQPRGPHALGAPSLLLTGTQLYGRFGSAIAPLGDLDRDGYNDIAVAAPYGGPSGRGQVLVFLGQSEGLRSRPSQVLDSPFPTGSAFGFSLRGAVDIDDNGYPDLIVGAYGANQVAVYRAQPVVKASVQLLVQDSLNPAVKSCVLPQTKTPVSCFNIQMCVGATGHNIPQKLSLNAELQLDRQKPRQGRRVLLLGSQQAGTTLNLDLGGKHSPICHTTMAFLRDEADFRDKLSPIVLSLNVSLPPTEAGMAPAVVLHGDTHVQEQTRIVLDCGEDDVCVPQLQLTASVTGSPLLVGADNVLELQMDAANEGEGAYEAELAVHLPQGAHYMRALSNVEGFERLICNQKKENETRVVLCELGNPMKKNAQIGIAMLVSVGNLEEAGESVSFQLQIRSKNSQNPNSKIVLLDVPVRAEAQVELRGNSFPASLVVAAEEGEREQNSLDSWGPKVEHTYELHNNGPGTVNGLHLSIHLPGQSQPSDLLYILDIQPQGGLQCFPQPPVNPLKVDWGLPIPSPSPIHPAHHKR
# Sequence (P08514 891-1039 limits assumed): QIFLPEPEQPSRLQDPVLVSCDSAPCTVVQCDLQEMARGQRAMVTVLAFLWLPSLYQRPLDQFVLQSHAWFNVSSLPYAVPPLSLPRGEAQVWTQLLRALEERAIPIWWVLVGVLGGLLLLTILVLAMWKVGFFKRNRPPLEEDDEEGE
# experimental-details: Binding affinity to human integrin […] receptor by TRF assay
Quick list: IC50 per entry.
Unit µM implied. Number only.

Use these answered entries as a reference point.
1) O=C(O)CCN1CCc2cc(Oc3cccc4c3nc3n4CCCN3)ccc2C1=O	6.3
2) O=C(O)CC(c1ccc2c(c1)OCO2)N1CCc2cc(Oc3cccc4c3nc3n4CCCN3)ccc2C1=O (stereo unspecified)	0.167

I'd like to know its IC50. The molecule in question is O=C(O)CC(c1cccnc1)N1CCc2cc(Oc3cccc4c3nc3n4CCCN3)ccc2C1=O (stereo unspecified)
0.323

---

# target-desc: Integrin alpha-V/beta-3 (Homo sapiens, UniProt P05106+P06756)
# Sequence (P06756 31-889 limits assumed, one chain of several): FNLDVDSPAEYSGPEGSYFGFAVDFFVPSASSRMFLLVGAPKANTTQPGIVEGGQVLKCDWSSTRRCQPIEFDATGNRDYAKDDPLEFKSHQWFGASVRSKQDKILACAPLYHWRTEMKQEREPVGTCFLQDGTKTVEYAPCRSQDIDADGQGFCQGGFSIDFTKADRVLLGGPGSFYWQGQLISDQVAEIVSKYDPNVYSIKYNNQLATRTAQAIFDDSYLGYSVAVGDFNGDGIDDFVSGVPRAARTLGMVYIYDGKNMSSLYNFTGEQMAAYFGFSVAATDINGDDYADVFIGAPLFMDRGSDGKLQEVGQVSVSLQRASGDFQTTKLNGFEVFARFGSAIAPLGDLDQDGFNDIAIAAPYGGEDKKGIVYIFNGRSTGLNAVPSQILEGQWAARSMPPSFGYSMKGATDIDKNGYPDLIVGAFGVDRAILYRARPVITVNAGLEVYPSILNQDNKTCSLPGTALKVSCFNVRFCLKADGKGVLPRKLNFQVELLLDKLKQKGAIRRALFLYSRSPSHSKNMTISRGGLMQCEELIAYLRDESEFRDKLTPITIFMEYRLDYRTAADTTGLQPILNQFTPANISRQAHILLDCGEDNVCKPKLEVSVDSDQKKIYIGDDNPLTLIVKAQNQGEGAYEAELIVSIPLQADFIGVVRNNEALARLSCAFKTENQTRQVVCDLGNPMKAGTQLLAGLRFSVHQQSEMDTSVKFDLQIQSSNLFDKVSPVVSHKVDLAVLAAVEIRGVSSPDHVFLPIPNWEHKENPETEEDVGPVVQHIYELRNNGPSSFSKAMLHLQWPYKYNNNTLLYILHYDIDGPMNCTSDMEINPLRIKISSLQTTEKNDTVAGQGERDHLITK
# Sequence (P06756 891-1048 limits assumed, one chain of several): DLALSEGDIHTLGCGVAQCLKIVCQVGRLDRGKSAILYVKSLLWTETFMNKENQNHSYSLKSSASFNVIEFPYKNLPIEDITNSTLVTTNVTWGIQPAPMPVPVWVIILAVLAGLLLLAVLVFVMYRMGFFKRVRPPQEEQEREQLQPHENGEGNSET
# experimental-details: Binding affinity to human integrin alphavbeta3 receptor by TRF assay
pIC50: −log10 of the molar value.
# cutoff 8 applies to pIC50; >= gives 1.0, < gives 0.0

1) Cn1c(N)nc2c(Oc3ccc4c(c3)CCN(CCC(=O)O)C4=O)cccc21	0.0
2) Cn1c(N)nc2c(Oc3ccc4c(c3)CCCN(CCC(=O)O)C4=O)cccc21	0.0
3) Cn1c(N)nc2c(Oc3ccc4c(c3)CN(CCC(=O)O)C4=O)cccc21	0.0
4) Cn1c(N)nc2c(Oc3ccc(C(=O)NCCC(=O)O)cc3)cccc21	0.0
5) O=C(O)CC(c1cccnc1)N1CCc2cc(Oc3cccc4c3nc3n4CCCN3)ccc2C1=O (configuration not stated)	1.0

Now look at this one.
Record O=C(O)CC(c1ccc2c(c1)OCO2)N1CCc2cc(Oc3cccc4c3nc3n4CCCN3)ccc2C1=O (configuration not stated) ; criterion: pIC50 no lower than 8. Met?
1.0

---

# target-desc: Integrin alpha-V (Homo sapiens, UniProt P06756+P18084)
# Sequence (P06756 whole entry, one chain of several): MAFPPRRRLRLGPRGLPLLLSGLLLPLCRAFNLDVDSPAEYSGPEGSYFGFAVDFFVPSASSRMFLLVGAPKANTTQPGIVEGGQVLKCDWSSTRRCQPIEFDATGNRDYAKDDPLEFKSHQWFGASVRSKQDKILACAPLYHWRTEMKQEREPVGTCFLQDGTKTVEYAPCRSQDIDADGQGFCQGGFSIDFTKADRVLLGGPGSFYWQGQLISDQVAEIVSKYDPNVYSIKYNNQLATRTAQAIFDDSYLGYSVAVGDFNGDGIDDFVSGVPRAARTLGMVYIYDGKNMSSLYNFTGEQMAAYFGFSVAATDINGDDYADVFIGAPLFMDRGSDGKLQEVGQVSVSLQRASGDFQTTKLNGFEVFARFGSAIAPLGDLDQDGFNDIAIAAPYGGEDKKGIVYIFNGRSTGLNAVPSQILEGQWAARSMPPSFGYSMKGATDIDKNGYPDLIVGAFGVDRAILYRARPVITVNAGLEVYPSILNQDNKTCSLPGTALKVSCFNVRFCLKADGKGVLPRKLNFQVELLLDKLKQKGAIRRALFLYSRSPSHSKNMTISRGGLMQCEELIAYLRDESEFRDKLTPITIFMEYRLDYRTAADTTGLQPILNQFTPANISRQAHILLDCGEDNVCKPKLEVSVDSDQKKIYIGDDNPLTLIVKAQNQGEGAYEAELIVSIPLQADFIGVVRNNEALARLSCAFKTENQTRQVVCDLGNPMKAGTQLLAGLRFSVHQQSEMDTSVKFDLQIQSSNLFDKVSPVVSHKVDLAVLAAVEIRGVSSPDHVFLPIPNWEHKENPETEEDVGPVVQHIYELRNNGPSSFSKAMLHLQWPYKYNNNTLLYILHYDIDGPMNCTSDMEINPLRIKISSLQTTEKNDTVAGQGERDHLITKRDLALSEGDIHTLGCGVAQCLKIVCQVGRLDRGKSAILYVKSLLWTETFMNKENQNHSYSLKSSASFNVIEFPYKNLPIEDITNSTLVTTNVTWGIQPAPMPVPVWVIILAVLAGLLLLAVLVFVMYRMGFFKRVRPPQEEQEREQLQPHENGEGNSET
# experimental-details: Binding affinity to human integrin alphavbeta5 receptor by TRF assay
// reported pIC50 per item
FYI, pIC50 means -log10 of a concentration in mol per litre.

1. Cn1c(N)nc2c(Oc3ccc(C(=O)NCCC(=O)O)cc3)cccc21	5.69

Item `Cn1c(N)nc2c(Oc3ccc4c(c3)CCCN(CCC(=O)O)C4=O)cccc21` has what recorded pIC50?
5.37

Find the recorded pIC50 belonging to O=C(O)CC(c1cccnc1)N1CCc2cc(Oc3cccc4c3nc3n4CCCN3)ccc2C1=O (configuration not stated) and report it.
8.30

Item under review: `Cn1c(N)nc2c(Oc3ccc4c(c3)CN(CCC(=O)O)C4=O)cccc21` . Reported pIC50?
5.32

Which pIC50 is reported for this molecule? O=C(O)CC(c1ccc2c(c1)OCO2)N1CCc2cc(Oc3cccc4c3nc3n4CCCN3)ccc2C1=O (configuration not stated)
7.85

pIC50 for `O=C(O)CCN1CCc2cc(Oc3cccc4c3nc3n4CCCN3)ccc2C1=O` ?
6.51

Please report the recorded pIC50 for `Cn1c(N)nc2c(Oc3ccc4c(c3)CCN(CCC(=O)O)C4=O)cccc21` .
6.22

---

# target-desc: Integrin alpha-IIb/beta-3 (Homo sapiens, UniProt P05106+P08514)
# experimental-details: Binding affinity to human integrin […] receptor by TRF assay
experimental-readout: IC50

Recorded results for 2 compounds are shown here.
1) Cn1c(N)nc2c(Oc3ccc4c(c3)CCN(CCC(=O)O)C4=O)cccc21	> 10 µM
2) Cn1c(N)nc2c(Oc3ccc4c(c3)CN(CCC(=O)O)C4=O)cccc21	> 10 µM

Turning now to a further compound:
Param item = `Cn1c(N)nc2c(Oc3ccc4c(c3)CCCN(CCC(=O)O)C4=O)cccc21` ; retrieve measured IC50.
> 10 µM

Just for reference, ChEMBL document CHEMBL1154548 is where these values come from.
